test system: Alternaria solani; test: in vivo preventive test on Alternaria solani (tomato); settings: 500 ppm of active ingredient, evaluated 7 days after inoculation
Assign Efficacy to each entry below.
One number for each entry, in %.

# Compound, Reading unit, Efficacy
data = [
    ("CC(c1cccnc1Cl)N(C(=O)c1c(C(F)F)nn(C)c1F)C1CC1 (stereo not drawn) [Example 50]", "%", 95),
    ("Cc1nn(-c2ccccc2)nc1CN(C(=S)c1c(C(F)F)nn(C)c1F)C1CC1 [Example 132]", "%", 90),
    ("Cn1nc(C(F)F)c(C(=O)N(Cc2cccs2)C2CC2)c1F [Example 32]", "%", 70),
    ("Cn1nc(C(F)F)c(C(=O)N(Cc2ccc(Cl)nc2)C2CC2)c1F [Example 67]", "%", 95),
    ("CN(Cc1cnn(-c2ccccc2)c1)C(=O)c1c(C(F)F)nn(C)c1Cl [Example 108]", "%", 90),
    ("Cc1cc(C(C)N(C(=O)c2c(C(F)F)nn(C)c2Cl)C2CC2)c(C)s1 (stereo not drawn) [Example 49]", "%", 80),
    ("Cc1ccsc1CN(C(=O)c1c(C(F)F)nn(C)c1Cl)C1CC1 [Example 39]", "%", 95),
    ("Cn1nc(C(F)F)c(C(=O)N(Cc2csc3ccccc23)C2CC2)c1F [Example 90]", "%", 95),
]

Can you give me Efficacy for all of these, one by one?
1. Cn1nc(C(F)F)c(C(=O)NC2CCCc3sccc32)c1F (stereo not drawn) [Example 104]
2. CC(c1cnc(Cl)c(Cl)c1)N(C(=O)c1c(C(F)F)nn(C)c1Cl)C1CC1 (stereo not drawn) [Example 120]
3. Cn1nc(C(F)F)c(C(=O)N(Cc2cnc(Cl)cc2Cl)C2CC2)c1F [Example 118]

OUTPUT:
1. 94
2. 90
3. 95

Can you give me Efficacy for all of these, one by one?
1. CC(c1cc(Cl)sc1Cl)N(C(=O)c1c(C(F)F)nn(C)c1Cl)C1CC1 (stereo not drawn) [Example 127]
2. CC(c1csc2ccccc12)N(C(=O)c1c(C(F)F)nn(C)c1F)C1CC1 (racemic) [Example 85]
3. Cn1nc(C(F)F)c(C(=O)N(Cc2c(Cl)cncc2Cl)C2CC2)c1F [Example 115]
4. CN(Cc1cc(CC(C)(C)C)no1)C(=O)c1c(C(F)F)nn(C)c1F [Example 105]
5. Cn1nc(C(F)F)c(C(=O)N(Cc2cc(CC(C)(C)C)no2)C2CC2)c1F [Example 106]
6. Cn1nc(C(F)F)c(C(=O)NCc2csc3ccccc23)c1F [Example 88]
7. Cc1ccsc1CN(C(=O)c1c(C(F)F)nn(C)c1Cl)C1CCCC1 [Example 37]

OUTPUT:
1: 95; 2: 80; 3: 100; 4: 95; 5: 95; 6: 78; 7: 80

Values compiled from patent US9320276B2.
